# test-protocol: Oral bioavailability in Sprague-Dawley rat at 10 mg/kg
# Type: ADME, organism-based
# stated-conditions: in vivo
measured-endpoint: bioavailability (%)
Give your result in % as a bare value.

**Query** I am curious: what bioavailability value has been reported for "CCCCN(c1c(OC)nn2c(-c3c(OC)cc(COCC)cc3OC)csc12)C1CCOCC1" ?
**Result** 23

----------
# test-protocol: Tmax in Sprague-Dawley rat at 10 mg/kg, po
# Assay type: ADME, organism-based
# Set-up: dose 10 mg/kg, route oral
# stated-conditions: in vivo
measured-endpoint: Tmax (min)
Unit min implied. Number only.

**Query** Could you tell me which Tmax is on file for "CCCCN(c1c(OC)nn2c(-c3c(OC)cc(COCC)cc3OC)csc12)C1CCOCC1" ?
**Result** 30
